- ASSAY_PROCEDURE: Gemcitabine urine pharmacokinetics (renal excretion) in Slc28a1+/+ and Slc28a1-/- mice
- CONDITION_DETAILS: mouse, urine, intravenous, 50 mg/kg, Cp (dFdU), Figure 5 G, H, I; KO mice, 30 Minutes, individual mice
ENDPOINT_NAME: concentration at 30 min (ng/mL)
Reply with just the number (in ng/mL).

# return recorded concentration at 30 min for entry O=c1ccn([C@@H]2O[C@H](CO)[C@@H](O)C2(F)F)c(=O)[nH]1 [dFdU, 2′,2′-difluorodeoxyuridine]
334

====

- ASSAY_PROCEDURE: Gemcitabine urine pharmacokinetics (renal excretion) in Slc28a1+/+ and Slc28a1-/- mice
- CONDITION_DETAILS: mouse, urine, intravenous, 50 mg/kg, Cp (Gemcitabine), Figure 5 G, H, I; WT mice, 60 Minutes, individual mice
Where a name gives a salt, the structure may show the parent alone.
ENDPOINT_NAME: concentration at 60 min (µg/mL)
Reply with just the number (in µg/mL).

# return recorded concentration at 60 min for entry Nc1ccn([C@@H]2O[C@H](CO)[C@@H](O)C2(F)F)c(=O)n1 [dFdC, Gemcitabine hydrochloride, reference compound]
864

Recorded values, source paper PMC10235067.
